Consider the following molecules; for each one, report its GI50.
test system: T47D; assay: Cytotoxicity against human T47D cells; assay type: functional
A number alone suffices; assume µM.

Recorded GI50 of COc1cc(/C=C/c2cc(O)c3cc(CC=C(C)C)[nH]c3c2)cc2c1O[C@]1(C)CC[C@@H](O)C(C)(C)[C@H]1C2 , please.
29.5

Returns the measured GI50 for the input molecule. Input: COc1cc(/C=C/c2cc(OC)c3cc[nH]c3c2)cc2c1O[C@]1(C)CC[C@@H](O)C(C)(C)[C@H]1C2
2.82

Endpoint output: GI50 of COc1cc(/C=C/c2cc(O)c3cc[nH]c3c2)cc2c1O[C@]1(C)CC[C@@H](O)C(C)(C)[C@H]1C2 . Value?
5.01

Consider the molecule COc1cc(/C=C/c2cc(O)c3ccn(C)c3c2)cc2c1O[C@]1(C)CC[C@@H](O)C(C)(C)[C@H]1C2 and give its measured GI50.
5.62
